Source: patent US7335659B2

# TARGET_DESC: human estrogen receptor β receptor (hERβ) (Homo sapiens)
# Construct: expressed in transfected cells; host or cells: Chinese hamster ovary (CHO) cells, stably co-transfected with hERβ, rat oxytocin promoter and luciferase reporter gene
# Sequence (Q92731 whole entry): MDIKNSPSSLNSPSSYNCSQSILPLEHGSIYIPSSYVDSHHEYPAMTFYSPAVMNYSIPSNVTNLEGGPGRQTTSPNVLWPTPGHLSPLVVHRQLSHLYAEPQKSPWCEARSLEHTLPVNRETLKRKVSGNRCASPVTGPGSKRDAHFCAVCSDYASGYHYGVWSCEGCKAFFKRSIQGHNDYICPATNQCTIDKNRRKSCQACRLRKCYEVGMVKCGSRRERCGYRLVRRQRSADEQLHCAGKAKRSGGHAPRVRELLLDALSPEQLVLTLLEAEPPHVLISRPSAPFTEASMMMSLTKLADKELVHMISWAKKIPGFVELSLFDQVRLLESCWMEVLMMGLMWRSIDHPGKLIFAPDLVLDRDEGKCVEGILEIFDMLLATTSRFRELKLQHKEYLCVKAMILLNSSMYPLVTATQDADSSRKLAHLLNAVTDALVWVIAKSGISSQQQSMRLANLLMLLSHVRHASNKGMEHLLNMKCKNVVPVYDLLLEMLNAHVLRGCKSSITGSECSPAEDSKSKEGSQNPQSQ
# ASSAY_TEXT: Antiestrogenic activity in in vitro bioassay with recombinant CHO cells co-transfected with hERβ, rat oxytocin promoter and luciferase reporter gene
# Type: cell-based
# CONDITION_SET: potency ratio relative to standard ICI 164.384; inhibition of estradiol-induced luciferase transactivation via hERβ in CHO cells
QUANTITY_MEASURED: ERβ antagonism

[
  {
    "COMPOUND": "Cc1ccc(-c2c3c(cc4ccc(O)cc24)-c2ccc(O)cc2C3)cc1 [Compound 5e]",
    "QUANTITY_MEASURED": "ERβ antagonism",
    "REPORTED_VALUE": "++ (>40%: ++)"
  },
  {
    "COMPOUND": "Oc1ccc2c(c1)Cc1c-2cc2ccc(O)cc2c1-c1ccc(F)cc1 [Compound 5l]",
    "QUANTITY_MEASURED": "ERβ antagonism",
    "REPORTED_VALUE": "++ (>40%: ++)"
  },
  {
    "COMPOUND": "Oc1ccc2c(c1)Cc1c-2cc2ccc(O)cc2c1-c1ccc(Cl)c(Cl)c1 [Compound 5m]",
    "QUANTITY_MEASURED": "ERβ antagonism",
    "REPORTED_VALUE": "++ (>40%: ++)"
  }
]
